test: Mouse liver microsomal stability; conditions: mouse, pooled liver microsomes
assayReadout: half-life at 1 μM

// query Consider the compound Cc1[nH]c2ccccc2c1CCNC(=O)c1ccc(N2CCOCC2)cc1 [2a] and give its measured half-life at 1 μM.
// result < 2 min

###

assay: Solubility in simulated gastric fluid pH 2.0 by nephelometry; type: physicochemical; conditions: simulated gastric fluid
assayReadout: solubility

| compound | result |
| --- | --- |
| COc1ccccc1-c1ncc(C(=O)NCCc2c(C)[nH]c3ccccc23)cn1 [14a] | > 100 µM |

// next entry
// query Consider the compound Cc1cc(C)nc(Nc2ncc(C(=O)NCCc3c(C)[nH]c4c(F)cc(F)cc34)cn2)c1 [24c] and give its measured solubility.
// result > 100 µM

###

biological target: human IP receptor (Homo sapiens); assay: Cell-based cAMP TR-FRET assay, Schild KB against iloprost at IP; conditions: selectivity index IP KB/EP2 KB
Sequence (P43119 whole entry): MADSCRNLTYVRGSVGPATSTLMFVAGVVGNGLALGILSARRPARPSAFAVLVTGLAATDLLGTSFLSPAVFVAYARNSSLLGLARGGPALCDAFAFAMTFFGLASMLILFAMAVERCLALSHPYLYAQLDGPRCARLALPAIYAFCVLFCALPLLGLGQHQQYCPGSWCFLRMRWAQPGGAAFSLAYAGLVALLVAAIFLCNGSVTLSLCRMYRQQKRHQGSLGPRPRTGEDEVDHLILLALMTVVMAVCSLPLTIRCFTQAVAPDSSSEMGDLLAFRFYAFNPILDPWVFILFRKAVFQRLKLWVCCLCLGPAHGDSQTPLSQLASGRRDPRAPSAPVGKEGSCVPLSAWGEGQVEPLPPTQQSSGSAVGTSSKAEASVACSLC
assayReadout: S.I (IP/EP2)

These recorded examples may help you get a feel for the data.
| compound | assaySystem | result |
| --- | --- | --- |
| Cc1[nH]c2ccccc2c1CCNC(=O)c1cnc(Nc2cccnc2)nc1 [20q] | human IP receptor (Homo sapiens) | >1200 |
| Cc1[nH]c2ccccc2c1CCNC(=O)c1cnc(Nc2cc(F)ccn2)nc1 [20c] | human IP receptor (Homo sapiens) | >1500 |
| COc1cccc(Nc2ncc(C(=O)NCCc3c(C)[nH]c4ccccc34)cn2)n1 [20h] | human IP receptor (Homo sapiens) | >1280 |

// query Consider the compound Cc1[nH]c2ccccc2c1CCNC(=O)c1cnc(Nc2ccccn2)nc1 [20a] and give its measured S.I (IP/EP2).
// result >900

// query Consider the compound Cc1cccc(Nc2ncc(C(=O)NCCc3c(C)[nH]c4ccccc34)cn2)n1 [20e] and give its measured S.I (IP/EP2).
// result >1500

###

target: UniProtKB P43119; experiment: Cell-based cAMP TR-FRET assay, Schild KB against iloprost at IP; details: selectivity index IP KB/EP2 KB
Below: a set of entries, each annotated with reported S.I (IP/EP2).

These recorded examples may help you get a feel for the data.
| compound | result |
| --- | --- |
| COc1ccccc1-c1ncc(C(=O)NCCc2c(C)[nH]c3ccccc23)cn1 [14a] | 730 |
| Cc1cc(C)nc(Nc2ncc(C(=O)NCCc3c(C)[nH]c4ccc(Cl)cc34)cn2)c1 [24b] | >350 |

// query Consider the compound Cc1cc(C)nc(Nc2ncc(C(=O)NCCc3c(C)[nH]c4c(F)cc(F)cc34)cn2)c1 [24c] and give its measured S.I (IP/EP2).
// result >500

###

assay: Solubility in simulated gastric fluid pH 2.0 by nephelometry; assay type: physicochemical
assayReadout: solubility

// query Consider the molecule Cc1cc(C)nc(Nc2ncc(C(=O)NCCc3c(C)[nH]c4ccccc34)cn2)c1 [20o] and give its measured solubility.
// result > 250 µM

###

target: human EP4 receptor (Homo sapiens); assay: Cell-based cAMP TR-FRET assay, Schild KB against PGE2 at EP4; settings: selectivity index EP4 KB/EP2 KB
Sequence (P35408 whole entry): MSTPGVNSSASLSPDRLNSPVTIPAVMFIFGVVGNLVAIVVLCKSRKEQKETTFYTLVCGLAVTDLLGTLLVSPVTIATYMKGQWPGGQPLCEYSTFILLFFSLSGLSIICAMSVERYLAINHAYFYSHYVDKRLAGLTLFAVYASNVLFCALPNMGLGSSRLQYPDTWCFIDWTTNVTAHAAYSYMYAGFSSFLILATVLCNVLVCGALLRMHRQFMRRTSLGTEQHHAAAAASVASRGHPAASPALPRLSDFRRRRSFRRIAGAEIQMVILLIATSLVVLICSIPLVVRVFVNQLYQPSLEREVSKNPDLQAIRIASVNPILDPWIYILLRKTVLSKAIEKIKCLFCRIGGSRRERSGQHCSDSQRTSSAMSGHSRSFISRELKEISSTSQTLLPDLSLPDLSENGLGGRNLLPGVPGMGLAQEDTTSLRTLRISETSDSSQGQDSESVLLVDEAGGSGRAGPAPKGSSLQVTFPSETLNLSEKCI
Below: a set of entries, each annotated with reported S.I (EP4/EP2).

// query Consider the compound Cc1cc(C)nc(Nc2ncc(C(=O)NCCc3c(C)[nH]c4ccc(Cl)cc34)cn2)c1 [24b] and give its measured S.I (EP4/EP2).
// result >350

###

biological target: UniProtKB P35408; experiment: Cell-based cAMP TR-FRET assay, Schild KB against PGE2 at EP4; conditions: selectivity index EP4 KB/EP2 KB
Below: a set of entries, each annotated with reported S.I (EP4/EP2).

| compound | result |
| --- | --- |
| COc1ccccc1-c1ncc(C(=O)NCCc2c(C)[nH]c3ccccc23)cn1 [14a] | 517 |

// query Reported S.I (EP4/EP2) for UniProtKB P35408, given Cc1[nH]c2ccccc2c1CCNC(=O)c1cnc(Nc2cc(F)ccn2)nc1 [20c] ?
// result >1500

// query Reported S.I (EP4/EP2) for UniProtKB P35408, given Cc1cccc(Nc2ncc(C(=O)NCCc3c(C)[nH]c4ccccc34)cn2)n1 [20e] ?
// result >1500

// query Reported S.I (EP4/EP2) for UniProtKB P35408, given Cc1[nH]c2ccccc2c1CCNC(=O)c1cnc(Nc2cccnc2)nc1 [20q] ?
// result >1200
